System: HCV replicon Luc Neo ET
experiment: HCV replication inhibition assay (replicon assay, luciferase reporter)
Format: cell-based
cond: Hepatitis C virus; Huh-7 cell lines containing HCV replicon Luc Neo ET; 72 hours with compound; 1 % DMSO; firefly luciferase reporter; concentration that produces 50 % of replication inhibition; read-out: EC50 Replicon LucneoET
quantity: EC50

>  <compound>
COc1ccc(CCN2C(=S)N(c3ccc(F)cc3)C(=O)C2CC(=O)Nc2ncc(OC)s2)cc1 (stereo not shown) [Example 88]

>  <EC50>
< 500 nM

$$$$

Lab note: each compound below needs its EC50 filled in.
1. COc1ccc(CCCCN2C(=S)N(c3ccc(F)cc3)C(=O)C2CC(=O)Nc2ccc(OC)cn2)cc1 (stereo not shown) [Example 93]
2. COc1ccc(CCN2C(=O)N(c3ccc(F)cc3)C(=O)C2CC(=O)Nc2ccc(C)nn2)cc1 (stereo not shown) [Example 74]

["< 500 nM", "< 30000 nM"]

Lab note: each compound below needs its EC50 filled in.
1. COc1ccc(CCN2C(=S)N(c3ccc(F)cc3)C(=O)C2CC(=O)Nc2ccc(OC)cc2F)cc1 (stereo not shown) [Example 85]
2. COc1ccc(NC(=O)CC2C(=O)N(c3ccc(F)cc3)C(=S)N2CCc2cccs2)cc1 (stereo not shown) [Example 46]
3. COc1ccc(CCN2C(=O)N(c3ccc(F)cc3)C(=O)C2CC(=O)Nc2ccc(OC)cn2)cc1 (stereo not shown) [Example 72]
4. COCCOc1ccc(NC(=O)CC2C(=O)N(c3ccc(F)cc3)C(=S)N2CCc2ccc(OC)cc2)cc1 (stereo not shown) [Example 53]
5. COc1ncc(NC(=O)CC2C(=O)N(c3ccc(F)cc3)C(=S)N2CCc2ccc(N(C)C)cc2)cn1 (stereo not shown) [Example 79]

1. < 500 nM
2. < 500 nM
3. < 5000 nM
4. < 500 nM
5. < 5000 nM

Lab note: each compound below needs its EC50 filled in.
1. COc1ccc(NC(=O)CC2C(=O)N(c3ccc(F)cc3)C(=S)N2CCc2ccc(N3CCOCC3)cc2)cc1 (stereo not shown) [Example 52]
2. COc1ccc(NC(=O)CC2C(=O)N(c3ccc(F)cc3)C(=S)N2CCc2ccc(N(C)C)cc2)cc1 (stereo not shown) [Example 47]
3. O=C(CC1C(=O)N(c2ccccc2)C(=S)N1CCc1ccc(Cl)cc1)Nc1ccon1 (stereo not shown) [Example 64]
4. COc1ccc(CCN2C(=S)N(c3ccc(F)cc3)C(=O)C2CC(=O)Nc2ncc(OC)cn2)cc1 (stereo not shown) [Example 84]
5. O=C(CC1C(=O)N(c2ccccc2)C(=S)N1CCc1ccc(Cl)cc1)Nc1ccccn1 (stereo not shown) [Example 57]
6. COc1ccc(CCN2C(=S)N(c3ccc(F)cc3)C(=O)C2CC(=O)Nc2ccc(OC(C)C)cc2)cc1 (stereo not shown) [Example 54]
7. COc1ccc(CCN2C(=S)N(c3ccccc3)C(=O)/C2=C\C(=O)Nc2ccc(N(C)C)cc2)cc1 [Example 90]
8. O=C(CC1C(=O)N(c2ccccc2)C(=S)N1CCc1ccc(Cl)cc1)Nc1ccc(Cl)c(Cl)c1 (stereo not shown) [Example 38]

1. < 500 nM
2. < 500 nM
3. < 5000 nM
4. < 500 nM
5. < 500 nM
6. < 500 nM
7. < 500 nM
8. < 5000 nM

* * *

tested system: HCV replicon Luc Neo ET
experiment: HCV replication inhibition assay (replicon assay, luciferase reporter)
Format: cell-based
cond: Huh-7 cell lines containing HCV replicon Luc Neo ET; 72 hours with compound; 1 % DMSO; firefly luciferase reporter; concentration that produces 50 % of replication inhibition; read-out: EC50 Replicon LucneoET
pEC50: −log10 of the molar value.
quantity: pEC50

Known pEC50 results, listed for orientation:
>  <molecule>
CCOc1cccc(NC(=O)CC2C(=O)N(c3ccccc3)C(=S)N2CCc2ccc(F)cc2)c1 (stereo not shown)

>  <value>
> 5.30

$$$$
>  <molecule>
CCOc1ccc(NC(=O)CC2C(=O)N(c3ccccc3)C(=S)N2CCc2ccccc2F)cc1 (stereo not shown)

>  <value>
> 6.30

$$$$
>  <molecule>
O=C(CC1C(=O)N(c2ccccc2)C(=S)N1CCc1ccc(Cl)cc1)Nc1ccccc1 (stereo not shown)

>  <value>
> 5.30

$$$$
>  <molecule>
COc1ccc(NC(=O)CC2C(=O)N(c3ccc(F)cc3)C(=S)N2CCc2ccc(OCCNC(=O)OC(C)(C)C)cc2)nc1 (stereo not shown)

>  <value>
> 6.30

$$$$
>  <molecule>
COc1ccc(NC(=O)CC2C(=O)N(c3ccc(F)cc3)C(=S)N2CCCN2CCN(c3ccccc3)CC2)cc1 (stereo not shown)

>  <value>
> 6.30

$$$$
>  <molecule>
COc1ccc2[nH]cc(CCN3C(=S)N(c4ccccc4)C(=O)C3CC(=O)Nc3ccccc3)c2c1 (stereo not shown)

>  <value>
> 5.30

$$$$
>  <molecule>
COc1ccc(NC(=O)CC2C(=O)N(c3ccc(F)cc3)C(=S)N2CCc2ccc(Cl)cc2)cc1 (stereo not shown)

>  <value>
> 6.30

$$$$
>  <molecule>
CCOc1ccc(NC(=O)CC2C(=O)N(c3ccccc3)C(=O)N2CCC(C)C)cc1 (stereo not shown)

>  <value>
> 5.30

$$$$

Lab note: each molecule below needs its pEC50 filled in.
1. COC(=O)c1ccc(NC(=O)CC2C(=O)N(c3ccccc3)C(=S)N2CCc2ccc(Cl)cc2)cc1 (stereo not shown)
2. COc1ccc(NC(=O)CC2C(=O)N(c3ccc(C)cc3)C(=S)N2CCc2ccccc2)cc1 (stereo not shown)
3. O=C(CC1C(=O)N(c2ccc(Cl)cc2)C(=S)N1CCc1ccc(Cl)cc1)Nc1ccc(F)cc1 (stereo not shown)
4. COc1ccc(CCN2C(=S)N(c3ccc(F)cc3)C(=O)C2CC(=O)Nc2ccc(OC)cc2)cc1 (stereo not shown)
5. CCCOc1ccc(NC(=O)CC2C(=O)N(c3ccccc3)C(=S)N2CCc2ccccc2)cc1 (stereo not shown)

> 5.30
> 5.30
> 4.52
> 6.30
> 6.30

Lab note: each molecule below needs its pEC50 filled in.
1. COc1ccc(NC(=O)CC2C(=O)N(c3ccccc3)C(=S)N2CCc2ccc(Cl)cc2)cc1 (stereo not shown)
2. O=C(CC1C(=O)N(c2ccccc2)C(=S)N1CCc1ccc(Cl)cc1)Nc1ccc(Cl)cc1 (stereo not shown)

1. > 6.30
2. > 5.30

Lab note: each molecule below needs its pEC50 filled in.
1. COc1ccc(NC(=O)CC2C(=O)N(c3ccccc3)C(=O)N2CCC2=CCCCC2)cc1 (stereo not shown)
2. CCCOc1ccc(NC(=O)CC2C(=O)N(c3ccccc3)C(=S)N2CCCN2CCN(Cc3ccccc3)CC2)cc1 (stereo not shown)
3. CCCOc1ccc(NC(=O)CC2C(=O)N(c3ccccc3)C(=S)N2CCc2ccc(Cl)cc2)cc1 (stereo not shown)
4. COc1ccc(NC(=O)CC2C(=O)N(c3ccc(F)cc3)C(=O)N2CCc2cccs2)cc1 (stereo not shown)
5. O=C(CC1C(=O)N(c2ccccc2)C(=S)N1CCc1ccccc1)Nc1ccc(Cl)cc1 (stereo not shown)

1. > 6.30
2. > 5.30
3. > 6.30
4. > 5.30
5. > 5.30

Lab note: each molecule below needs its pEC50 filled in.
1. CCCOc1ccc(NC(=O)CC2C(=O)N(c3ccc(F)cc3)C(=S)N2CCCN2CCN(CC)CC2)cc1 (stereo not shown)
2. COc1ccc(CCN2C(=S)N(c3ccc(F)cc3)C(=O)C2CC(=O)Nc2c(F)cc(OC)cc2F)cc1 (stereo not shown)
3. COCCCN1C(=S)N(c2ccc(F)cc2)C(=O)C1CC(=O)Nc1ccc(OC)cc1 (stereo not shown)
4. CCCOc1ccc(NC(=O)CC2C(=O)N(C3CCCCC3)C(=S)N2Cc2ccc(OC)cc2)cc1 (stereo not shown)
5. COc1ccc(NC(=O)CC2C(=O)N(Cc3ccccc3)C(=S)N2CCc2ccc(Cl)cc2)cc1 (stereo not shown)
6. COc1ccc(CCN2C(=S)N(c3ccccc3)C(=O)C2CC(=O)Nc2ccc(OC)cc2)cc1 (stereo not shown)

["> 4.52", "> 6.30", "> 4.52", "> 4.52", "> 4.52", "> 6.30"]

Lab note: each molecule below needs its pEC50 filled in.
1. Cc1ccsc1CCN1C(=S)N(c2ccccc2)C(=O)C1CC(=O)Nc1ccc(F)cc1 (stereo not shown)
2. COc1ccc(/C=C/N2C(=S)N(c3ccc(F)cc3)C(=O)C2CC(=O)Nc2ccc(OC)cn2)cc1 (stereo not shown)

1. > 5.30
2. > 6.30

* * *

tested system: HCV replicon Luc Neo ET
experiment: HCV replication inhibition assay (replicon assay, luciferase reporter)
Format: cell-based
cond: Huh-7 cell lines containing HCV replicon Luc Neo ET; 72 hours with compound; 1 % DMSO; firefly luciferase reporter; concentration that produces 50 % of replication inhibition; read-out: EC50 Replicon LucneoET
Task for the reader: assign each of the following molecules its reported EC50.

Known EC50 results, listed for orientation:
>  <molecule>
COc1ccc(NC(=O)CC2C(=O)N(c3ccccc3)C(=S)N2CCc2ccc(OC)c(OC)c2)cc1 (stereo not shown)

>  <EC50>
< 5000 nM

$$$$
>  <molecule>
O=C(CC1C(=O)N(c2ccc(F)cc2)C(=S)N1CCc1ccc(Cl)cc1)Nc1ccccc1 (stereo not shown)

>  <EC50>
< 500 nM

$$$$
>  <molecule>
COc1ccc(NC(=O)CC2C(=O)N(c3ccc(F)cc3)C(=S)N2CCCN2CCN(Cc3ccccc3)CC2)cc1 (stereo not shown)

>  <EC50>
< 500 nM

$$$$

Identify the reported EC50 for the following entry. CCOc1ccc(NC(=O)CC2C(=O)N(c3cccc(C(F)(F)F)c3)C(=S)N2CCc2ccccc2F)cc1 (stereo not shown)
< 5000 nM
